# Test system: NCI-H23 lung
# procedure-summary: NCI tumour cell line growth inhibition, 48 h
value-type: TGI

COc1ccc(/C(=N/Nc2ccc([N+](=O)[O-])cc2)Sc2cc(Cl)c(C)cc2S(N)(=O)=O)cc1 = 9.77 µM
CC/C(=N/O)c1ccc(Br)s1 = > 100 µM
Cc1cccc2c(N)c3cccc(C(=O)NCCCNCCN)c3nc12 = 10.9 µM
NC1C2(CCCCCC2)NC(=O)C12CCCCCC2 (configuration not stated) = > 100 µM
CC[C@]12C=CCN3CC[C@@]4(c5ccc(OC)cc5N(C)[C@H]4[C@@](O)(C(=O)OC)[C@@H]1OC(C)=O)[C@@H]32 = > 200 µM
COC(=O)C(=O)C(C(=O)C(=O)Nc1ccc(C)cc1C)c1nc2ccccc2[nH]c1=O (configuration not stated) = > 100 µM
CC(C(=O)N1c2ccccc2Sc2ccccc21)N1c2ccccc2Sc2ccccc21 (configuration not stated) = > 100 µM
CCCCn1c(C)c(C(=O)OCC)c2cc(OCc3ccc(C(=O)Nn4c(C)ccc4C)cc3)c(Br)cc21 = > 100 µM
COc1ccc(-c2c(C#N)c(NC(=S)NC(=O)c3ccccc3)nc3c2CCCC3)cc1OC = > 100 µM
COC(=O)[C@]12CCC(C)(C)C[C@H]1C1=CC[C@@H]3[C@@]4(C)C/C(=C/c5cccnc5)C(=O)C(C)(C)[C@@H]4CC[C@@]3(C)[C@]1(C)CC2 = 29.8 µM

Enquiry: Would you mind telling me what TGI value was observed for Cc1cc(=O)[nH]c(NNC(C#N)c2ccc(O)cc2)n1 (configuration not stated) ?
Return: > 100 µM

Enquiry: Which TGI value belongs to COc1cc2c3c(n(CCCBr)c(=O)c2cc1OC)-c1ccc(NC(C)=O)cc1C3=O ?
Return: 46.4 µM

====

# Test system: SK-OV-3 ovarian
# procedure-summary: NCI tumour cell line growth inhibition, 48 h
The following compounds are shown together with reported TGI values.

S=C(/N=c1/sc(Nc2ccccc2)nc2sc3c(c12)CCCC3)Nc1ccccc1 = > 62.5 µM
COc1ccc(/C(=N/Nc2ccc([N+](=O)[O-])cc2)Sc2cc(Cl)c(C)cc2S(N)(=O)=O)cc1 = 12.7 µM
NC1C2(CCCCCC2)NC(=O)C12CCCCCC2 (stereo unspecified) = > 100 µM

Enquiry: Consider the compound shown here: COc1cc2c(c(OC)c1OC)-c1ccc(SC)c(=O)cc1C(CC(=O)Oc1ccc([N+](=O)[O-])cc1)C2 (stereo unspecified) What is its recorded TGI?
Return: > 100 µM

Enquiry: Which TGI is reported for this compound? COc1ccc(C2CC(=O)c3c(O)c(OC)c(OC)c(OC)c3O2)c(O)c1 (stereo unspecified)
Return: 24.8 µM

Enquiry: Requested field: TGI. Item: Cc1cc(C2CCCCC2)n(O)c(=O)c1
Return: > 100 µM

Enquiry: Given the compound Cc1cc(C)cc(Nc2cc(C)nc3nc(C(F)(F)F)nn23)c1 , what is its reported TGI?
Return: > 100 µM

Enquiry: // lookup TGI for C#CC[C@]12CC(=O)CC[C@H]1CC(=O)C2
Return: > 100 µM

Enquiry: # input compound: CC[C@H](C)[C@H](NC(=O)[C@H]1CCCCN1C)C(=O)N(C)[C@H](CCc1nc(C(=O)N[C@@H](Cc2ccccc2)C[C@H](C)C(=O)OC)cs1)C(C)C ; wanted: its TGI
Return: > 25 µM

Enquiry: Any idea what its TGI is? The compound is CCOC(=O)/C(O)=C(/C=NC(=S)c1ccncc1)C(=O)OCC
Return: > 100 µM

Enquiry: Given COc1ccc(-c2c(C#N)c(NC(=S)NC(=O)c3ccccc3)nc3c2CCCC3)cc1OC , state its recorded TGI.
Return: > 100 µM
